Molecular target: T1, human GREM1 (hGREM1-His; SEQ ID NO: 595) (human, UniProt O60565 25-184)
T1 construct: also called biotin-hGREM1-His; recombinant human GREM1 protein
T1 sequence: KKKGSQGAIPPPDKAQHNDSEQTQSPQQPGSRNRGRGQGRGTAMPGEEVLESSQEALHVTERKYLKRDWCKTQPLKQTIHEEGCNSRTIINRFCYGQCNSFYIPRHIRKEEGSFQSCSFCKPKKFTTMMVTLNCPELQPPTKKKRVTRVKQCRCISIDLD
Experiment: competition ELISA, biotin-hGREM1-His (100 pM) binding to coated hBMP4
Quick reference: IC50 of the listed items.
The reply should contain only the number, in pM.

>>> recorded_value("H4H6270P (antibody, human IgG4, V domains shown, H4H prefix = human IgG4 Fc) VH: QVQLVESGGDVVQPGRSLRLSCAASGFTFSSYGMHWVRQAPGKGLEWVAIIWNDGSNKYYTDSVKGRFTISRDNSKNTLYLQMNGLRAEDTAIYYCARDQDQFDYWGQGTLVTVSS VL: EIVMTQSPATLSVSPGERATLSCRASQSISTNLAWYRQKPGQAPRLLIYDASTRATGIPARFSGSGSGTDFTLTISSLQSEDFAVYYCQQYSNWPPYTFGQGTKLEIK")
1900

Attention now shifts to the item below.
Which IC50 is listed for H4H6245P (antibody, human IgG4, V domains shown, H4H prefix = human IgG4 Fc) VH: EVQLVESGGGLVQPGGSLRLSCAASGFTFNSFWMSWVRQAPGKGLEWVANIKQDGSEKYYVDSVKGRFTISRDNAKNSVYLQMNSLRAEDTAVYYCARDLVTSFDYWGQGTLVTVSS VL: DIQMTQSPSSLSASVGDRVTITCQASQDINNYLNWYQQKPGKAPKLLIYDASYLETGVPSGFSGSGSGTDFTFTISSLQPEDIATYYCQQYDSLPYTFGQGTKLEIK ? 36

The measured values listed here are drawn from patent US20200157194A1.
